Provide the recorded MIC for the entries that follow.
system: Candida parapsilosis; assay: Antimicrobial activity against Candida parapsilosis 22019 after 24 hrs by serial dilution method; type: functional; details: Lodderomyces parapsilosis, 22019, 24 h
Just the number please, in µg/mL, no unit attached.

[ask] Specify MIC for C[C@@H](N1CCn2nc(-c3cccs3)nc2C1)[C@](O)(Cn1cncn1)c1ccc(F)cc1F and stop.
[reply] 0.125

[ask] Specify MIC for C[C@@H](N1CCn2nc(Br)nc2C1)[C@](O)(Cn1cncn1)c1ccc(F)cc1F and stop.
[reply] 0.25

[ask] Specify MIC for C[C@@H]1[C@H](O)[C@@H](C)/C=C/C=C/C=C/C=C/C=C/C=C/C=C/[C@H](O[C@@H]2O[C@H](C)[C@@H](O)[C@H](N)[C@@H]2O)C[C@@H]2O[C@](O)(C[C@@H](O)C[C@@H](O)[C@H](O)CC[C@@H](O)C[C@@H](O)CC(=O)O[C@H]1C)C[C@H](O)[C@H]2C(=O)O and stop.
[reply] 0.5

---

system: Nakaseomyces glabratus; assay: Antimicrobial activity against Candida glabrata 537 after 24 hrs by serial dilution method; format: functional; conditions: Nakaseomyces glabratus, 537, 24 h
measurement_label: MIC

[ask] Specify MIC for C[C@@H](N1CCn2nc(-c3ccco3)nc2C1)[C@](O)(Cn1cncn1)c1ccc(F)cc1F and stop.
[reply] 0.25 µg/mL

[ask] Specify MIC for C[C@@H](N1CCc2nc(-c3ccc(C#N)cc3)sc2C1)[C@](O)(Cn1cncn1)c1ccc(F)cc1F and stop.
[reply] 0.5 µg/mL

[ask] Specify MIC for C[C@@H](N1CCc2nc(-c3ccsc3)sc2C1)[C@](O)(Cn1cncn1)c1ccc(F)cc1F and stop.
[reply] 0.25 µg/mL

[ask] Specify MIC for C[C@@H](c1nc(-c2ccc(C#N)cc2)cs1)[C@](O)(Cn1cncn1)c1ccc(F)cc1F and stop.
[reply] ≤ 0.125 µg/mL

[ask] Specify MIC for C[C@@H](N1CCc2sc(-c3ccc(F)cc3)cc2C1)[C@](O)(Cn1cncn1)c1ccc(F)cc1F and stop.
[reply] 4 µg/mL

[ask] Specify MIC for COc1ncc(-c2nc3n(n2)CCN([C@H](C)[C@](O)(Cn2cncn2)c2ccc(F)cc2F)C3)cn1 and stop.
[reply] 0.25 µg/mL

[ask] Specify MIC for C[C@@H](N1CCc2nc(-c3cccc(F)c3)sc2C1)[C@](O)(Cn1cncn1)c1ccc(F)cc1F and stop.
[reply] 8 µg/mL

[ask] Specify MIC for C[C@@H](N1CCn2cc(C(C)(C)C)nc2C1)[C@](O)(Cn1cncn1)c1ccc(F)cc1F and stop.
[reply] 0.25 µg/mL

---

tested on: Nakaseomyces glabratus; test: Antimicrobial activity against Candida glabrata 537 after 24 hrs by serial dilution method; type: functional; details: Nakaseomyces glabratus, 537, 24 h
Provide the recorded MIC for the entries that follow.
Just the number please, in µg/mL, no unit attached.

[ask] Look up and report measured MIC (Nakaseomyces glabratus) for the following compound: C[C@@H](N1CCn2nc(-c3cccnc3)nc2C1)[C@](O)(Cn1cncn1)c1ccc(F)cc1F
[reply] 0.0312

[ask] Look up and report measured MIC (Nakaseomyces glabratus) for the following compound: CCOC(=O)c1cn2c(n1)CN([C@H](C)[C@](O)(Cn1cncn1)c1ccc(F)cc1F)CC2
[reply] 1

[ask] Look up and report measured MIC (Nakaseomyces glabratus) for the following compound: Cc1ccc(-c2cc3c(s2)CCN([C@H](C)[C@](O)(Cn2cncn2)c2ccc(F)cc2F)C3)cc1
[reply] 4

[ask] Look up and report measured MIC (Nakaseomyces glabratus) for the following compound: C[C@@H](N1CCn2nc(-c3cncc(F)c3)nc2C1)[C@](O)(Cn1cncn1)c1ccc(F)cc1F
[reply] 1

[ask] Look up and report measured MIC (Nakaseomyces glabratus) for the following compound: C[C@@H](N1CCn2nnc(Br)c2C1)[C@](O)(Cn1cncn1)c1ccc(F)cc1F
[reply] 0.25

[ask] Look up and report measured MIC (Nakaseomyces glabratus) for the following compound: C[C@@H](N1CCn2cc(C(F)(F)F)nc2C1)[C@](O)(Cn1cncn1)c1ccc(F)cc1F
[reply] 0.25

[ask] Look up and report measured MIC (Nakaseomyces glabratus) for the following compound: C[C@@H](N1CCc2cc(-c3cccnc3)sc2C1)[C@](O)(Cn1cncn1)c1ccc(F)cc1F
[reply] 1

[ask] Look up and report measured MIC (Nakaseomyces glabratus) for the following compound: C[C@@H](N1CCc2nc(Br)sc2C1)[C@](O)(Cn1cncn1)c1ccc(F)cc1F
[reply] 1

[ask] Look up and report measured MIC (Nakaseomyces glabratus) for the following compound: C[C@@H](N1CCc2nc(-c3ccco3)sc2C1)[C@](O)(Cn1cncn1)c1ccc(F)cc1F
[reply] 0.5
